B1: POU domain, class 4, transcription factor 2, residues 256 to 327; numbered along this chain, Q12837 (parent)
chain: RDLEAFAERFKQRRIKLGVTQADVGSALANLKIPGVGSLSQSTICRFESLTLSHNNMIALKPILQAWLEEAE

- Variants of: B1
- assay-comment: abundance fitness (aPCA) (normalised: wild type 0, dead -1); higher = more abundant; growth selection in yeast, the domain comes from the species named
- test-settings: Homo sapiens
Overview of recorded abundance fitness for various variants
assay-endpoint: abundance fitness

INSERT INTO results (mutation_notation, assay_endpoint, reading) VALUES
  ('I63M', 'abundance fitness', -0.382),
  ('A59C', 'abundance fitness', -0.431),
  ('D23Q', 'abundance fitness', 0.047),
  ('L50D', 'abundance fitness', -0.196),
  ('K61P', 'abundance fitness', -0.802),
  ('T20M', 'abundance fitness', -0.344),
  ('H54W', 'abundance fitness', -0.119),
  ('S40W', 'abundance fitness', -0.779),
  ('T51E', 'abundance fitness', -0.059),
  ('K32P', 'abundance fitness', -0.33),
  ('I58G', 'abundance fitness', -0.287),
  ('A66W', 'abundance fitness', -0.138),
  ('V24T', 'abundance fitness', -0.948),
  ('R14V', 'abundance fitness', -0.998),
  ('G35F', 'abundance fitness', -0.084),
  ('I15A', 'abundance fitness', -0.237),
  ('A27L', 'abundance fitness', -0.302),
  ('Q65K', 'abundance fitness', -0.074),
  ('Q65T', 'abundance fitness', -0.19),
  ('L64G', 'abundance fitness', -0.787),
  ('V24C', 'abundance fitness', -0.1),
  ('Q65V', 'abundance fitness', -0.324),
  ('Q41V', 'abundance fitness', -0.187),
  ('A59L', 'abundance fitness', -0.091),
  ('P62N', 'abundance fitness', -0.44),
  ('E72V', 'abundance fitness', -0.419),
  ('I15N', 'abundance fitness', -0.521),
  ('G35P', 'abundance fitness', -0.77),
  ('G37H', 'abundance fitness', 0.083),
  ('L28F', 'abundance fitness', -0.215),
  ('A59G', 'abundance fitness', -0.169),
  ('N55S', 'abundance fitness', 0.013),
  ('S26Y', 'abundance fitness', -0.05),
  ('N30V', 'abundance fitness', -0.432),
  ('I33N', 'abundance fitness', -0.434),
  ('L68R', 'abundance fitness', -0.847),
  ('T43I', 'abundance fitness', 0.207),
  ('L60I', 'abundance fitness', 0.201),
  ('K32W', 'abundance fitness', -0.188),
  ('L50S', 'abundance fitness', 0.012),
  ('Q41W', 'abundance fitness', -0.06),
  ('L31I', 'abundance fitness', 0.057),
  ('H54T', 'abundance fitness', 0.06),
  ('C45W', 'abundance fitness', -0.431),
  ('A71S', 'abundance fitness', -0.183),
  ('T51M', 'abundance fitness', 0.077),
  ('I44A', 'abundance fitness', -1),
  ('R14K', 'abundance fitness', -0.632),
  ('E69T', 'abundance fitness', -0.133),
  ('V36Y', 'abundance fitness', -0.047),
  ('S53N', 'abundance fitness', -0.605),
  ('G35H', 'abundance fitness', -0.528),
  ('A29K', 'abundance fitness', 0.042),
  ('E70V', 'abundance fitness', -0.186),
  ('G35D', 'abundance fitness', -0.36),
  ('A29G', 'abundance fitness', -0.009),
  ('L31K', 'abundance fitness', 0.002),
  ('N55R', 'abundance fitness', -0.055),
  ('D23S', 'abundance fitness', -0.068),
  ('A59Y', 'abundance fitness', -0.026),
  ('L52M', 'abundance fitness', -0.324),
  ('S40N', 'abundance fitness', -0.108),
  ('I15M', 'abundance fitness', 0.113),
  ('L39S', 'abundance fitness', -0.304),
  ('G37P', 'abundance fitness', -0.2),
  ('I33T', 'abundance fitness', -0.311),
  ('N56D', 'abundance fitness', 0.281),
  ('P34A', 'abundance fitness', -0.244),
  ('T43A', 'abundance fitness', -0.271),
  ('L60W', 'abundance fitness', -0.729),
  ('T20N', 'abundance fitness', -0.559),
  ('I58C', 'abundance fitness', -0.374),
  ('I33V', 'abundance fitness', 0.008),
  ('L31P', 'abundance fitness', -0.382),
  ('Q65W', 'abundance fitness', -0.504),
  ('V24G', 'abundance fitness', -1.03),
  ('L68T', 'abundance fitness', -0.733),
  ('S49G', 'abundance fitness', 0.055),
  ('N30M', 'abundance fitness', -0.5),
  ('S26G', 'abundance fitness', -0.164),
  ('N55E', 'abundance fitness', -0.184),
  ('E69V', 'abundance fitness', -0.178),
  ('G25N', 'abundance fitness', -0.593),
  ('Q65I', 'abundance fitness', -0.502),
  ('N55K', 'abundance fitness', -0.016),
  ('R14P', 'abundance fitness', -0.985),
  ('L39M', 'abundance fitness', -0.01),
  ('A27F', 'abundance fitness', -0.114),
  ('S40D', 'abundance fitness', 0.016),
  ('M57W', 'abundance fitness', -0.374),
  ('A71D', 'abundance fitness', -0.614);
